Tested on: CP260
experiment: qHTS profiling for inhibitors of Plasmodium falciparum proliferation (AID 504749); note: nearly all actives have a fitted effect of over 60% in size
condition label: P. falciparum in erythrocytes, SYBR Green DNA, 72 h; series mostly up to 28.7 µM
Method: NIH National Institute of Allergy and Infectious Diseases [NIAID] NIH Chemical Genomics Center [NCGC] […] Because mature erythrocytes lack DNA, only Plasmodium-derived DNA is detected. NCGC Assay Protocol Summary: The SYBR Green viability assay was adapted from a method described previously (Plouffe et al., 2008). […] The following morning, fluorescence intensity at 485(14) nm excitation and 535(25) nm emission wavelengths was measured on an EnVision (Perkin Elmer) plate reader. […]
Inconclusive results are not listed. Calls of active or inactive are those of the source. Calls come from the whole dose curve; as a rule, active = well fitted inhibition curve with a large enough effect; inconclusive = small, poorly fitted or top-dose-only effect; inactive = flat fitted curve, though single readings scatter.
Possible outcomes: y (active), n (inactive)

> print(dat)
                                    compound  class.assignment
 1              CCOC(=O)C(C)(C)Oc1ccc(Cl)cc1                 n
 2       N[C@@H](Cc1c[nH]c2ccc(O)cc12)C(=O)O                 n
 3                             NCCS(=O)(=O)O                 n
 4  CCCNCC(O)COc1ccccc1C(=O)CCc1ccccc1 (configuration not stated)                 y
 5  OCCN1CCN(CCCN2c3ccccc3Sc3ccc(C(F)(F)F)cc32)CC1                 y
 6           C[C@](N)(Cc1ccc(O)c(O)c1)C(=O)O                 n
 7  CC(CCc1ccc(O)cc1)NCCc1ccc(O)c(O)c1 (configuration not stated)                 n
 8        CN1CCC(=C2c3ccccc3C=Cc3ccccc32)CC1                 n
 9        NS(=O)(=O)c1cc2c(cc1Cl)NCNS2(=O)=O                 n
10  CC[C@@]1(O)C(=O)OCc2c1cc1n(c2=O)Cc2cc3c(CN(C)C)c(O)ccc3nc2-1                 y
11           Cc1cc(C(C)(C)C)cc(C)c1CC1=NCCN1                 n
12                Cn1cnc2c1c(=O)[nH]c(=O)n2C                 n
